# TEST TARGET: full-length BTK C481S enzyme (Homo sapiens (Human), UniProt Q06187, C481S)
# Sequence (Q06187 whole entry C481S): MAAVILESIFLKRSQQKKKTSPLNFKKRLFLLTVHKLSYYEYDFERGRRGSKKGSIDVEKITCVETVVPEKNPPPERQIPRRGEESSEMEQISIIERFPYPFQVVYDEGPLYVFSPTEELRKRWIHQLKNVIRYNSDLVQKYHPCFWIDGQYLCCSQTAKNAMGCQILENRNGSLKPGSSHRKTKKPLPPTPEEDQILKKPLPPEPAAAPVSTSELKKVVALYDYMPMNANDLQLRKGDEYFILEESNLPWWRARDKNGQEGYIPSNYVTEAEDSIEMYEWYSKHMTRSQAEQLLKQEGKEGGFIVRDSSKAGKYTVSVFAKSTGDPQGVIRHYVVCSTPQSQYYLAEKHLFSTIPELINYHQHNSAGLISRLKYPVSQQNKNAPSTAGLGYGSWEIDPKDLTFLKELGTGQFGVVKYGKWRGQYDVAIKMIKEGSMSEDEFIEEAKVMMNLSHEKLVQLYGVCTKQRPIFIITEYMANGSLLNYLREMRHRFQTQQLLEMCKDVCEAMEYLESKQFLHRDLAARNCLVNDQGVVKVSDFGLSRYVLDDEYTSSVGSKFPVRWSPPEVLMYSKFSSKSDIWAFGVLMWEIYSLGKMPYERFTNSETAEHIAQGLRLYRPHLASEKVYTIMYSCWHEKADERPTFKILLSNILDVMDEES
# EXPERIMENT: Biochemical kinase assay BTK C481S (IMAP)
pIC50: −log10 of the molar value.
Overview of reported pIC50 across a group of compounds:

> print(dat)
                                   compound      observed
1  Nc1ncc2c3c1c(-c1ccc(C(=O)Nc4cc(C(F)(F)F)ccn4)cc1)nn3[C@@H]1CCC[C@H](C1)NC(=O)CCNC/C=C/2 [Example 21]        > 8.30
2  Nc1ncc2c3c1c(-c1ccc(C(=O)Nc4ccccn4)cc1)nn3[C@@H]1CCC[C@H](C1)NC(=O)CCCCC/C=C\C2 [Example 102b]        > 8.30
3  Nc1ncc2c3c1c(-c1ccc(C(=O)Nc4ccccn4)cc1)nn3[C@@H]1CCC[C@H](C1)NC(=O)COC/C=C\C2 [Example 104b]  7.30 to 8.30

Asked: Form entry - test system: full-length BTK C481S enzyme (Homo sapiens (Human), UniProt Q06187, C481S); read-out: pIC50; compound: Nc1ncc2n3c(nc(-c4ccc(C(=O)Nc5cc(C(F)(F)F)ccn5)cc4)c13)[C@@H]1CCC[C@H](C1)NC(=O)CCC/C=C/C2 [Example 133a]
Given back: 7.30 to 8.30

Asked: Value wanted: pIC50 (full-length BTK C481S enzyme (Homo sapiens (Human), UniProt Q06187, C481S)) of entry C[C@@H]1CC(=O)N[C@@H]2CC[C@H](C2)c2nc(-c3ccc(C(=O)Nc4cc(C(F)(F)F)ccn4)cc3)c3c(N)ncc(n23)/C=C/CCN1 [Example 207]
Given back: > 8.30

Asked: Quick check: pIC50 on full-length BTK C481S enzyme (Homo sapiens (Human), UniProt Q06187, C481S), item Nc1ncc2c3c1c(-c1ccc(C(=O)Nc4cc(C(F)(F)F)ccn4)cc1)nn3[C@@H]1CCC[C@H](C1)NC(=O)CCC/C=C/2 [Example 47] ?
Given back: > 8.30

Asked: Record C[C@@H]1CC(=O)N[C@@H]2CCC[C@H](C2)n2nc(-c3ccc(C(=O)Nc4cc(C(F)(F)F)ccn4)cc3)c3c(N)ncc(c32)/C=C/CN1C [Example 44] : what is its pIC50 with full-length BTK C481S enzyme (Homo sapiens (Human), UniProt Q06187, C481S)?
Given back: > 8.30

Asked: What reported pIC50 corresponds to Nc1ncc2c3c1c(-c1ccc(C(=O)Nc4cc(C(F)(F)F)ccn4)cc1)nn3[C@@H]1CCC[C@H](C1)NC(=O)CCCC[C@H](O)/C=C/2 [Example 11] on full-length BTK C481S enzyme (Homo sapiens (Human), UniProt Q06187, C481S)?
Given back: > 8.30

Asked: Item: Nc1ncc2c3c1c(-c1ccc(C(=O)Nc4cc(C(F)(F)F)ccn4)cc1)nn3[C@@H]1CC[C@H](C1)NC(=O)CCOCC/C=C/2 [Example 169] Test system: full-length BTK C481S enzyme (Homo sapiens (Human), UniProt Q06187, C481S) Read-out: pIC50 Value: ?
Given back: > 8.30

Asked: Lab note: need pIC50 for C[C@H]1CC(=O)N[C@@H]2CCC[C@H](C2)n2nc(-c3ccc(C(=O)Nc4cc(C(F)(F)F)ccn4)cc3)c3c(N)ncc(c32)/C=C/CCO1 [Example 156] on full-length BTK C481S enzyme (Homo sapiens (Human), UniProt Q06187, C481S), anyone have it?
Given back: > 8.30

Asked: Lab note: need pIC50 with full-length BTK C481S enzyme (Homo sapiens (Human), UniProt Q06187, C481S) for entry Nc1ncc2c3c1c(-c1ccc(C(=O)Nc4cc(C(F)(F)F)ccn4)cc1)nn3[C@@H]1CC[C@H](C1)NC(=O)CCOC/C=C/2 [Example 170] , please look it up.
Given back: > 8.30

Asked: GET /values?readout=pIC50&system=full-length BTK C481S enzyme (Homo sapiens (Human), UniProt Q06187, C481S)&item= C[C@@H]1CCn2nc(-c3ccc(C(=O)Nc4cc(C(F)(F)F)ccn4)cc3)c3c(N)ncc(c32)/C=C/CCN2CC[C@@H]2C(=O)N1 [Example 74]
Given back: > 8.30

----------
# TEST TARGET: UniProtKB Q06187
# EXPERIMENT: Binding kinetics measurements (Surface Plasmon Resonance) on wt-BTK
# CONDITION DETAILS: target residence time, SPR
EXPERIMENTAL ENDPOINT: Tau (h) wt-BTK (Act)
Number only, in h; omit the unit.

See these solved cases before continuing.
> print(dat)
                                   compound  observed
1  Nc1ncc2c3c1c(-c1ccc(C(=O)Nc4cc(F)ccn4)cc1)nn3[C@@H]1CCC[C@H](C1)NC(=O)CCOC/C=C/2      4.17
2  Nc1ncc2c3c1c(-c1ccc(C(=O)Nc4cc(C(F)(F)F)ccn4)cc1)nn3[C@@H]1CCCN(C1)C(=O)CCCCCC(O)/C=C/2 (stereo partly drawn)      2.95
3  N#Cc1ccnc(NC(=O)c2ccc(-c3nc4n5c(cnc(N)c35)/C=C/COCCC(=O)N[C@@H]3CCC[C@@H]4C3)cc2)c1      2.12
4  C[C@@H]1CC(=O)N[C@@H]2CCC[C@H](C2)c2nc(-c3ccc(C(=O)Nc4cc(C(F)(F)F)ccn4)cc3)c3c(N)ncc(n23)/C=C/CCN1      7.36

Asked: Given the entry `C[C@@H]1C[C@@H](C)n2nc(-c3ccc(C(=O)Nc4cc(C(F)(F)F)ccn4)cc3)c3c(N)ncc(c32)/C=C/CCCCCC(=O)N1` , report its measured Tau (h) wt-BTK (Act).
Given back: 4.83

Asked: # lookup: Tau (h) wt-BTK (Act) of Nc1ncc2c3c1c(-c1ccc(C(=O)Nc4cc(C(F)(F)F)ccn4)cc1)nn3[C@@H]1CCC[C@H](C1)C(=O)NCCCC/C=C\C2 [Example 85b]
Given back: 4.08

----------
# Test system: wt-TMD8 diffuse large B-cell lymphoma cells
# EXPERIMENT: Cell proliferation assay wt-TMD8 (ATPlite, 120 hours)
# Format: cell-based
# CONDITION DETAILS: B-cell; wt-TMD8 cells, 120 hours, ATPlite; read-out: IC50 wt-TMD8
# Procedure: Cell proliferation assay wt-TMD8 diffuse large B-cell lymphoma cells were purchased from Tokyo Medical and Dental University and cultured in RPMI-1640 cell culture medium (cat. no. 61870036, Life Technologies), supplemented with 10% (v/v) heat-inactivated fetal bovine calf serum and 1% penicillin/streptavidin. […] Luminescence was recorded on an Envision multimode reader. […] In addition, maximum growth was determined by incubation of a duplicate without compound in the presence of 0.3% DMSO. […]
pIC50: −log10 of the molar value.
pIC50 values, listed per item

Some entries whose results are on file:
> print(dat)
                                   compound                               test.target  experimental.endpoint  observed
1  C[C@@H]1CCn2nc(-c3ccc(C(=O)Nc4cc(C(F)(F)F)ccn4)cc3)c3c(N)ncc(c32)/C=C/CCOCCC(=O)N1 [Example 69]  wt-TMD8 diffuse large B-cell lymphoma cells                  pIC50    > 7.00
2  C[C@@H]1CCn2nc(-c3ccc(C(=O)Nc4cc(C(F)(F)F)ccn4)cc3)c3c(N)ncc(c32)/C=C/CCO[C@@H](C)CC(=O)N1 [Example 158]  wt-TMD8 diffuse large B-cell lymphoma cells                  pIC50    > 7.00

Consider the record given below.
Asked: Returns the measured pIC50 for the input compound. Input: COc1ccc(F)cc1C(=O)NCc1ccc(-c2nn3c4c(cnc(N)c24)/C=C/CCCCCC(=O)N[C@H](C)CC3)cc1 [Example 139]
Given back: > 7.00

----------
# Tested on: wt-TMD8 diffuse large B-cell lymphoma cells
# EXPERIMENT: Cell proliferation assay wt-TMD8 (ATPlite, 120 hours)
# Assay type: cell-based
# CONDITION DETAILS: B-cell; wt-TMD8 cells, 120 hours, ATPlite; read-out: IC50 wt-TMD8
# Method: Cell proliferation assay wt-TMD8 diffuse large B-cell lymphoma cells were purchased from Tokyo Medical and Dental University and cultured in RPMI-1640 cell culture medium (cat. no. 61870036, Life Technologies), supplemented with 10% (v/v) heat-inactivated fetal bovine calf serum and 1% penicillin/streptavidin. […] Luminescence was recorded on an Envision multimode reader. […] In addition, maximum growth was determined by incubation of a duplicate without compound in the presence of 0.3% DMSO. […]
pIC50: −log10 of the molar value.
EXPERIMENTAL ENDPOINT: pIC50

# count of solved cases: 2
> print(dat)
                                        smi  observed
1  Nc1ncc2n3c(nc(-c4ccc(C(=O)Nc5cc(C(F)(F)F)ccn5)cc4)c13)[C@@H]1CC[C@H](C1)NC(=O)CCCCC/C=C/2    > 7.00
2  CN1CC/C=C/c2cnc(N)c3c(-c4ccc(C(=O)Nc5cc(C(F)(F)F)ccn5)cc4)nn(c23)[C@@H]2CCC[C@H](C2)C(=O)NCC1    > 7.00

Now consider the entry below.
Asked: // pIC50 lookup, key: `C[C@@H]1CNC(=O)[C@@H]2CCC[C@H](C2)n2nc(-c3ccc(C(=O)Nc4cc(C(F)(F)F)ccn4)cc3)c3c(N)ncc(c32)/C=C/CN1C`
Given back: > 7.00
